# Target Or Test System: h-GABA-A α5β3γ2 (Homo sapiens, UniProt P18507+P31644)
# Test Protocol: Two-electrode voltage clamp electrophysiology in Xenopus laevis oocytes expressing GABAA receptors, modulation of GABA EC20 current
# Assay type: cell-based
# Set-up: host or cells: Xenopus laevis oocytes micro-injected with RNA transcripts of the subunits
# Condition: test compound at approx. 30 fold its Ki, GABA at EC20; Table 1
Metric: Fold increase h-GABA-A α5β3γ2 oocyte
Please give only the number in your answer, with no unit.

Consider the reported Fold increase h-GABA-A α5β3γ2 oocyte for these compounds:
Cc1ccc(-c2noc(C)c2Cn2ncc(N3CC4(CNC4)C3)cc2=O)cn1 | 2.49
Cc1ccc(-c2noc(C)c2Cn2ncc(N3CC(OCC4CC4)C3)cc2=O)nn1 | 2.26
CCOc1ccc(-c2cnn(Cc3c(-c4ccc(C)nc4)noc3C)c(=O)c2)cn1 | 2.19

# input for lookup
In: Quick one: Fold increase h-GABA-A α5β3γ2 oocyte for `Cc1ccc(-c2noc(C)c2Cn2ncc(-c3cnn(C4CC4)c3)cc2=O)cn1` ?
Out: 2.16

* * *

In this section we review reported pKi values for a set of compounds.
# Target Or Test System: h-GABA-A α5β3γ2 (Homo sapiens, UniProt P18507+P31644)
# Test Protocol: [3H]flumazenil competition binding assay, membranes of HEK293 cells expressing GABAA receptors
# Condition: displacement of [3H]-Flumazenil 0.5 nM, HEK293 cells expressing human receptors, mean of two determinations; Table 1
pKi field: float, defined as -log10 of concentration (mol/L).

In: Quick one: pKi for Cc1ccc(-c2noc(C)c2Cn2ncc(N3CC(Oc4ccc(Cl)nc4)C3)cc2=O)cn1 [Example 138] ?
Out: 8.04

In: Quick one: pKi for COc1ccc(-c2cnn(Cc3c(-c4ccc(C)nc4)noc3C)c(=O)c2)nc1 [Example 84] ?
Out: 7.07

* * *

# Target Or Test System: h-GABA-A α5β3γ2 (Homo sapiens, UniProt P18507+P31644)
# Test Protocol: Two-electrode voltage clamp electrophysiology in Xenopus laevis oocytes expressing GABAA receptors, modulation of GABA EC20 current
# Assay type: cell-based
# Design: host or cells: Xenopus laevis oocytes micro-injected with RNA transcripts of the subunits
# Condition: % modulation of GABA EC20 = 100*(Fold increase-1); Table 1
In this section we review reported Efficacy (GABA) % values for a set of compounds.
Write down the numeric answer in % and omit the unit.

Consider the reported Efficacy (GABA) % for these compounds:
Cc1ccc(-c2noc(C)c2Cn2ncc(N3CC(OC(F)F)C3)cc2=O)cn1 | 140
Cc1onc(-c2ccc(Cl)nc2)c1Cn1ncc(N2CCC3(CC2)CC(F)CCO3)cc1=O (single isomer, unassigned) [Example 330] | 159
Cc1ccc(-c2noc(C)c2Cn2ncc(N3CC4(C3)CN(C3CC3)C4)cc2=O)cn1 | 209
Cc1ccc(-c2noc(C)c2Cn2ncc(N3CCN(C4CC4)[C@H](C)C3)cc2=O)cn1 | 157
Cc1ccc(-c2noc(C)c2Cn2ncc(-c3cnn(C4CC4)c3)cc2=O)cn1 | 116

In: Quick one: Efficacy (GABA) % for `Cc1onc(-c2ccc(Cl)nn2)c1Cn1ncc(N2CC3(C2)CC(F)(F)CO3)cc1=O` ?
Out: 70

In: Quick one: Efficacy (GABA) % for Cc1ccc(-c2noc(C)c2Cn2ncc(N3CCN4C(=O)OCC4C3)cc2=O)cn1 (centres unmarked) ?
Out: 181

In: Quick one: Efficacy (GABA) % for `Cc1ccc(-c2noc(C)c2Cn2ncc(-c3cnn(CC(C)C)c3)cc2=O)cn1` ?
Out: 113

* * *

# Target Or Test System: h-GABA-A α5β3γ2 (Homo sapiens, UniProt P18507+P31644)
# Test Protocol: [3H]flumazenil competition binding assay, membranes of HEK293 cells expressing GABAA receptors
# Condition: displacement of [3H]-Flumazenil 0.5 nM, HEK293 cells expressing human receptors, mean of two determinations; Table 1
In this section we review reported pKi values for a set of molecules.
pKi field: float, defined as -log10 of concentration (mol/L).

Consider the reported pKi for these molecules:
Cc1ccc(-c2noc(C)c2Cn2ncc(N(C)C3CN(C4CC4)C3)cc2=O)cn1 | 7.64
Cc1ccc(-c2noc(C)c2Cn2ncc(N3CC4(CCC(C)(C)O4)C3)cc2=O)nn1 | 7.85
Cc1ccc(-c2noc(C)c2Cn2ncc(N3CC4(CCC(F)CO4)C3)cc2=O)cn1 (single isomer, unassigned) [Example 276] | 7.44

# input for lookup
In: Quick one: pKi for `Cc1ccc(-c2noc(C)c2Cn2ncc(N3CC(OC(C)(C)C)C3)cc2=O)cn1` ?
Out: 7.52

* * *

In this section we review reported pKi values for a set of compounds.
# Target Or Test System: h-GABA-A α5β3γ2 (Homo sapiens, UniProt P18507+P31644)
# Test Protocol: [3H]flumazenil competition binding assay, membranes of HEK293 cells expressing GABAA receptors
# Condition: displacement of [3H]-Flumazenil 0.5 nM, HEK293 cells expressing human receptors, mean of two determinations; Table 1
pKi field: float, defined as -log10 of concentration (mol/L).

Cc1ccc(-c2noc(C)c2Cn2ncc(N3CC4(CC(C(F)(F)F)CCO4)C3)cc2=O)nn1 (single isomer, unassigned) [Example 311] | 8.62
Cc1ccc(-c2noc(C)c2Cn2ncc(N3CC4(CN(C)C4)C3)cc2=O)cn1 | 7.48
Cc1ccc(-c2noc(C)c2Cn2ncc(N3CCOC(C)(C)C3)cc2=O)cn1 | 9.22

# input for lookup
In: Any idea what pKi came out for `Cc1onc(-c2ccc(Cl)nn2)c1Cn1ncc(N2CC3(C2)CC(F)(F)CO3)cc1=O` on h-GABA-A α5β3γ2 (Homo sapiens, UniProt P18507+P31644)?
Out: 8.85

* * *

In this section we review reported Efficacy (GABA) % values for a set of compounds.
# Target Or Test System: h-GABA-A α5β3γ2 (Homo sapiens, UniProt P18507+P31644)
# Test Protocol: Two-electrode voltage clamp electrophysiology in Xenopus laevis oocytes expressing GABAA receptors, modulation of GABA EC20 current
# Format: cell-based
# Set-up: host or cells: Xenopus laevis oocytes micro-injected with RNA transcripts of the subunits
# Condition: % modulation of GABA EC20 = 100*(Fold increase-1); Table 1
Write down the numeric answer in % and omit the unit.

Consider the reported Efficacy (GABA) % for these compounds:
Cc1ccc(-c2noc(C)c2Cn2ncc(N3CC4(CCC(F)CO4)C3)cc2=O)cn1 (single isomer, unassigned) [Example 275] | 89
Cc1ccc(-c2noc(C)c2Cn2ncc(-c3cncc(Cl)c3)cc2=O)cn1 | 248
Cc1ccc(-c2noc(C)c2Cn2ncc(N3CC(OC4CC4)C3)cc2=O)nn1 | 67

# input for lookup
In: Any idea what Efficacy (GABA) % came out for `Cc1ccc(-c2noc(C)c2Cn2ncc(N3C4CCC3COC4)cc2=O)cn1` on h-GABA-A α5β3γ2 (Homo sapiens, UniProt P18507+P31644)?
Out: 179

* * *

# Target Or Test System: h-GABA-A α5β3γ2 (Homo sapiens, UniProt P18507+P31644)
# Test Protocol: Two-electrode voltage clamp electrophysiology in Xenopus laevis oocytes expressing GABAA receptors, modulation of GABA EC20 current
# Format: cell-based
# Parameters: host or cells: Xenopus laevis oocytes micro-injected with RNA transcripts of the subunits
# Condition: test compound at approx. 30 fold its Ki, GABA at EC20; Table 1
Response field label: string, one of satisfied (Fold increase h-GABA-A α5β3γ2 oocyte strictly below 2) or not satisfied.

Before answering, review these 3 worked examples.
Cc1ccc(-c2noc(C)c2Cn2ncc(-c3ccccc3)cc2=O)cn1 [Example 67] | not satisfied
Cc1onc(-c2ccc(Cl)nc2)c1Cn1ncc(N2CCC3(CCCCO3)CC2)cc1=O [Example 333] | not satisfied
Cc1onc(-c2ccc(Cl)nc2)c1Cn1ncc(N2CC3(CCC(F)CO3)C2)cc1=O (single isomer, unassigned) [Example 297] | not satisfied

In: Quick check: does Cc1ccc(-c2noc(C)c2Cn2ncc(N3CC[C@@H](O)C3)cc2=O)cn1 [Example 3] have Fold increase h-GABA-A α5β3γ2 oocyte under 2?
Out: not satisfied

In: Quick check: does Cc1ccc(-c2noc(C)c2Cn2ncc(N3CCC4(CCOCC4)CC3)cc2=O)nn1 [Example 247] have Fold increase h-GABA-A α5β3γ2 oocyte under 2?
Out: satisfied

In: Quick check: does Cc1ccc(-c2noc(C)c2Cn2ncc(N3CC4(CC(C)CCO4)C3)cc2=O)nn1 (single isomer, unassigned) [Example 317] have Fold increase h-GABA-A α5β3γ2 oocyte under 2?
Out: satisfied

In: Quick check: does Cc1ccc(-c2noc(C)c2Cn2ncc(N3CC(OC4CCC4)C3)cc2=O)nn1 [Example 238] have Fold increase h-GABA-A α5β3γ2 oocyte under 2?
Out: not satisfied

* * *

# Target Or Test System: h-GABA-A α5β3γ2 (Homo sapiens, UniProt P18507+P31644)
# Test Protocol: Two-electrode voltage clamp electrophysiology in Xenopus laevis oocytes expressing GABAA receptors, modulation of GABA EC20 current
# Assay type: cell-based
# Design: host or cells: Xenopus laevis oocytes micro-injected with RNA transcripts of the subunits
# Condition: test compound at approx. 30 fold its Ki, GABA at EC20; Table 1
In this section we review reported Fold increase h-GABA-A α5β3γ2 oocyte values for a set of compounds.
Please give only the number in your answer, with no unit.

Consider the reported Fold increase h-GABA-A α5β3γ2 oocyte for these compounds:
Cc1onc(-c2ccc(Cl)nc2)c1Cn1ncc(N2CC(OC(F)(F)F)C2)cc1=O [Example 251] | 1.83
Cc1onc(-c2ccc(Cl)nc2)c1Cn1ncc(N2CCN(c3cccnc3)CC2)cc1=O [Example 278] | 2.08
COc1ccc(-c2cnn(Cc3c(-c4ccc(C)nc4)noc3C)c(=O)c2)cc1OC [Example 113] | 1.91

# input for lookup
In: Any idea what Fold increase h-GABA-A α5β3γ2 oocyte came out for Cc1ncc(-c2noc(C)c2Cn2ncc(N3CC4(CCCO4)C3)cc2=O)cc1F [Example 208] on h-GABA-A α5β3γ2 (Homo sapiens, UniProt P18507+P31644)?
Out: 2.1

All figures here come from patent US11840528B2.
